Listed here are sequences together with their documented pre-steady-state target cleavage rate.
Tested on: MIWI (PIWIL1) piRISC loaded with L1MC piRNA (30 nt);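 further: 1 nM active piRISC with 0.1 nM target library at 33 °C single turnover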
TEST_PROTOCOL: pre-steady-state target cleavage rate (min^-1); higher = faster piRNA-guided slicing of the target
CONDITION_SUMMARY: guide: L1MC piRNA 5'p-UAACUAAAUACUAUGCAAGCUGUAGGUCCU; auxiliary factor: none (no GTSF1)
Over roughly 8,200 sequences, “pre-steady-state target cleavage rate” has its median near 0.024; the highest 2% begin near 1.3. This excerpt belongs to a sample that is enriched for the highest values.
MEASURED_QUANTITY: pre-steady-state target cleavage rate

> print(dat)
                      residue.codes  numeric.readout
 1   UCCUGGUACAGCUUGGUUAGUAUUUAGUAA           0.0101
 2   UCGACGAUCAGCUUGCAUAGUAUUUAGUUA           0.0826
 3   UGGACGAUCAGCUUGCAUAGUAUUUAGUUA           0.0852
 4  AGGACCUACACGCUUGCAUAGUAUUUAGUUA           0.0703
 5   UCCACCAACAGCAUGCAUAGUAUUUAGUUA           0.0211
 6   UCCACCUACAGCGUGCAUAGUAUUUAGUUA           0.0325
 7   AGCACCUACACCUUGCAUAGUAUUUAGUUA           0.0408
 8   UCCUGGAUCAGCUUGCAUAGUAUUUAGCUA          0.00651
 9   UCCUGCUACAGCUUGCAUUGUUUUUAGUUA          0.00988
10  UCGACCUACAGCGUUGCAUAGUAUUUAGUUA           0.0561
11   UGGACCUACAGCGUGCAUAGUAUUUAGUUA           0.0647
12   UCCUCGAUCAGCUUGCAUAGUAUUUAGUAA             0.04
13   UCGACGAUCAGCUUGCAUAGUAUUUAGUAA            0.048
14   UCGACCUACAGCGUGCAUAGUAUUUAGUUA           0.0576

----------
System: MIWI (PIWIL1) piRISC loaded with L1MC piRNA (30 nt);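 further: 1 nM active piRISC with 0.1 nM target library at 33 °C single turnover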
TEST_PROTOCOL: pre-steady-state target cleavage rate (min^-1); MIWI and MILI are mouse PIWI proteins and EfPiwi is from a freshwater sponge; tags in brackets are library labels; higher = faster piRNA-guided slicing of the target;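 further: 1 nM active piRISC with 0.1 nM target library at 33 °C single turnover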
CONDITION_SUMMARY: guide: L1MC piRNA 5'p-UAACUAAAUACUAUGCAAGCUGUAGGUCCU; auxiliary factor: 500 nM mouse GTSF1
The full ranking holds about 8,200 sequences; the median of “pre-steady-state target cleavage rate” is about 0.024, and the highest 2% start at about 1.3. For the sample, the highest values were picked, then their nearest neighbours and some sequences at random.
Classification field: y = pre-steady-state target cleavage rate at or over 0.6; n = pre-steady-state target cleavage rate under 0.6.

> print(dat)
                      residue.codes  category
 1   UCCUCCUACAGGAUGCAUAGUAUUUACAAA         n
 2  UCGACCUACAGCUUGCAUAGUAUUCUAGUUA         y
 3  UCCUGGAUGUCGAUGCAUAGUAUUUGAGUUA         n
 4   AGGACCUACAGCAUGCAUAGUAUUUAGUUA         y
 5   UCCACCUACACCUUGCAUAGUUUUUAGUUA         n
 6   UGGUCCUACAGCAUGCAUAGUAUUUAGUUA         y
 7   UGGACCUACAGCUUGCAUAGUUUUUACUUA         n
 8   UCCUGGAUCAGCUUGCAUAGUAUUAAGAUA         n
 9   UCGACCUACUGCUUGCAUAGUAUUUAGUUA         y
10   UCCUCCUACUGCUUGCUUAGUAUUUAGUUA         y
11   AGGACCUACAGCUACGAUAGUAUUUAGUAA         n
12   UCCACCAACAGCUUGCUUAGUAUUUAGUUA         y
13   UGGACCUACUGCUUGCAUAGUAUUUAGUAA         y
14   UCCUGGAUGUGCUUGCAUUGUAUUUAGUAA         n
15   AGGACCUCCAGCUUGCAUAGUAUUUAGUUA         y
16   AGGUCCUACAGCAUGCAUAGUAUUUAGUUA         y
17   UCCUCGUACAGCUUGCAUAGUAAUUAGUUA         y
18   UCGUCCUACACCUUGCAUAGUAUUUAGUUA         y
19   UCGACCUACAGCUUCCAUAGUAAUUAGUUA         n
20   UCCUGCUACAGCUUGCUUAGUAUUUUCAAA         n
21   ACGACCUACUGCUUGCAUAGUAUUUAGUUA         y
22   AGGACCUACUGCUUGCAUAGUAUUUAGUUA         y
23  UCCUGGUACAGCUUGCAUAGUAUUUAGAUUA         n
24  UGGACCUACAGACUUGCAUAGUAUUUAGUUA         y
25   AGGACCAACAGCUUGCUUAGUAUUUAGUUA         y
26   UCCUGGUACUGCUUGCAAAGUAUUUAGUUA         n
27   UGGACCUCCAGCUUGCAUAGUAUUUAGUUA         y
28   UCCUGGUAAAGCUUGCAUAGUAUUUAGUUA         n
29   UCGACCAACAGCUUGCAAAGUAUUUAGUUA         y
30   UGGACCAACAGCUUGCUUAGUAUUUAGUUA         y
31   UGGACCUACACGUUGCAUAGUAUUUAGUAA         n
32   UGGACCUACAGCAUGCAUAGUAUUUAGUUA         y
33   AGGACCUACAGGUUCCAUAGUAUUUAGUUA         y
34   UCCUGGUACAGCUUGCAUAGUUUUUAGAUA         n
35   UGGACCUACAGCAUGCAUAGUAUUUAGUAA         y
36   UCCUGGAUGUCGAUGCAUAGUAUUGAGUUA         n
37    UCCUGGAUGUGCUUGCAUAGUAUUUAUUA         n
38   UCCUGCUACUCGUUGCAUAGUAUUUACAAA         n
39   UCGACCUACUGCUUGCUUAGUAUUUAGUUA         y
